target: HLA-A*68:02; experiment: IEDB peptide-MHC binding, cellular MHC/competitive/fluorescence; bounds were set here for any values at or beyond the usual limits of such assays; settings: source organism: Hepatitis B virus
Consider the following sequences; for each one, report its pIC50.
Answers are plain numbers, as −log10 of the molar value.

itemSequence | pIC50
LLVLLDYQGM | 4.21
PLLPIFFCL | 4.48
ILCWGELMTL | 5.11
ILRGTSFVYV | 4.43
GLSRYVARV | 5.05

Would you be so kind as to report pIC50 for each listed record?
1. KQYLNLYPV
2. YLVSFGVWI

## Output
1. 4.43
2. 4.42

Would you be so kind as to report pIC50 for each listed record?
1. NLSWLSLDV
2. RVRGLYFPA
3. FIIFLFILL
4. FLLSLGIHL
5. CLIFLLVLL
6. FLLAQFTSA
7. YMDDVVLGA
8. CLRRFIIFL

## Output
4.55
4.77
5.00
4.98
5.15
5.00
4.30
4.31

All values here come from the Immune Epitope Database (IEDB).
